- Test system: Colo-205 human colon adenocarcinoma cells
- method-summary: MTT cytotoxicity test
- Format: cell-based
- assay-context: Colo-205, 72 h
pIC50: −log10 of the molar value.
parameter: pIC50

{"molecule": "[Cl][Cu][Cl] [CuCl2, reference compound]", "parameter": "pIC50", "endpoint-value": 4.36}

* * *

- System: Colo-320 (doxorubicin-resistant) human colon adenocarcinoma cells
- method-summary: MTT cytotoxicity test
- Assay type: cell-based
- assay-context: Colo-320, 72 h
pIC50: −log10 of the molar value.
parameter: pIC50

{"molecule": "[Cl][Cu][Cl] [CuCl2, reference compound]", "endpoint-value": 4.31}

* * *

Reported solubility thermodynamic values are given for each entry in this list.
- method-summary: thermodynamic solubility at pH 7.4
- Type: physicochemical
- assay-context: 10 mM HEPES buffer, aqueous buffer, thermodynamic from solid, pH 7.4, T = 25 °C, read-out: thermodynamic solubility at pH 7.4 (S7.4)

{"compound": "N=C(N)NN=Cc1ccccc1O [SISC]", "solubility thermodynamic": "~2 mM"}
{"compound": "Cc1cc(C=NNC(=N)N)c(O)c(CN2CCCC2C(=O)O)c1 (centres unmarked) [Pro-SISC-Me]", "solubility thermodynamic": "~10 mM"}
